target: PI3K-δ (PI3K(p1108/p857) (h)) (Homo sapiens, UniProt O00329); assay: Evaluation of inhibitory activity against PI3K-δ (HTRF kinase assay); type: biochemical; details: compound at 0.1 μM; read-out: EXP_VALUE(% Inhibition) PI3K-δ 0.1 μM
Sequence (O00329 whole entry): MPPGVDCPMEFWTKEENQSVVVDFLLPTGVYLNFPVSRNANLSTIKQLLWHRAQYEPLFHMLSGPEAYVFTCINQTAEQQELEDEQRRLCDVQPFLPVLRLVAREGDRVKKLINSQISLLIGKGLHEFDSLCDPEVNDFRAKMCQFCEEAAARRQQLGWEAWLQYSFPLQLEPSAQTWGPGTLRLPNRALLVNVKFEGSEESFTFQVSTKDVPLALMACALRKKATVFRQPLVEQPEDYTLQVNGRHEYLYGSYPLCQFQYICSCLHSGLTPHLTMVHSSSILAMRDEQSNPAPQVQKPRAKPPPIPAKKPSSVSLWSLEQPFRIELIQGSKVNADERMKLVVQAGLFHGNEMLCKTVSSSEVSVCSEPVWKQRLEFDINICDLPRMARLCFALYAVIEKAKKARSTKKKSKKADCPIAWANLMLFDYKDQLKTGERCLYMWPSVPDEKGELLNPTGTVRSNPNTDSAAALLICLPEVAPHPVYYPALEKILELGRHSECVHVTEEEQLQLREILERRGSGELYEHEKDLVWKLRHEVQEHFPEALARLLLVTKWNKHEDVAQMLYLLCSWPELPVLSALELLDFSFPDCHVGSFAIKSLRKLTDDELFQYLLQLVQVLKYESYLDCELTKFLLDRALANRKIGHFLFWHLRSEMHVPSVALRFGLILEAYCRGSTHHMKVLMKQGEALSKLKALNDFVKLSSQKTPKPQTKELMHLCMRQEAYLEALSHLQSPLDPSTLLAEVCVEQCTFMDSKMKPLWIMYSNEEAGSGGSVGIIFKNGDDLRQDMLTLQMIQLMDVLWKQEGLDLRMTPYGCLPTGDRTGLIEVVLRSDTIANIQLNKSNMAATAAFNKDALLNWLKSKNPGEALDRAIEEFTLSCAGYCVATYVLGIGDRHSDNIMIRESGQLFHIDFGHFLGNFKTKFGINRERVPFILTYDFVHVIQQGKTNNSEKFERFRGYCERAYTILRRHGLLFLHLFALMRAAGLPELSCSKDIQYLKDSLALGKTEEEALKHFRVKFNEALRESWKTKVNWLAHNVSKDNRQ
Sequence (P27986 whole entry partner): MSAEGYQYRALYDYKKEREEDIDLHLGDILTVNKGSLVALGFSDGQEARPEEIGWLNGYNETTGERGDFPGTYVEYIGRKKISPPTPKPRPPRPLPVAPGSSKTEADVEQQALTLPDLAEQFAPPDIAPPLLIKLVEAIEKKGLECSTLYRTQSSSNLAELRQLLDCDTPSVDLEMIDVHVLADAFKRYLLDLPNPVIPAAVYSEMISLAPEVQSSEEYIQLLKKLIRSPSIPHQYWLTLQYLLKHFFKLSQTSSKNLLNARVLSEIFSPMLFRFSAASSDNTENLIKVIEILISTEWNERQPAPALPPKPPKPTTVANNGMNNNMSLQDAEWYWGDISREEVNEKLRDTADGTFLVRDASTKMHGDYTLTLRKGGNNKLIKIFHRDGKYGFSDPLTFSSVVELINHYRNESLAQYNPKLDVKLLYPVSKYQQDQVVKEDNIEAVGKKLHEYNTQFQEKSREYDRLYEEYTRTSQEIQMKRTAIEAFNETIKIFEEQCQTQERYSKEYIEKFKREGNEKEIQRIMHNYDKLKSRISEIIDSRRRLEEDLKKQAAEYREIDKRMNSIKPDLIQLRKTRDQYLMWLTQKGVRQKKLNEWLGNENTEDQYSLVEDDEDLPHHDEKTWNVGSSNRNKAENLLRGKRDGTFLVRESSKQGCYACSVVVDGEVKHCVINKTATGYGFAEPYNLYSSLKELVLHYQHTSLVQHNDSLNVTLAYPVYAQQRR
readoutKind: inhibition at 0.1 µM (%)

The examples below pair each entry with its known result.
Query: inhibition at 0.1 µM; subject: C[C@H](Nc1ncnc2[nH]ccc(=O)c12)c1c(Cl)c2cccc(Sc3nccs3)c2c(=O)n1-c1ccccc1 [Example 417]
26

Same read-out for C[C@H](Nc1ncnc2[nH]ccc(=O)c12)c1c(Cl)c2cccc(-c3cnc(S(C)(=N)=O)nc3)c2c(=O)n1-c1ccccc1 (stereo partly shown) [Example 407] ?
67

Same read-out for C[C@H](Nc1ncnc2[nH]ccc(=O)c12)c1c(Cl)c2cccc(-c3cnc(S(C)(=O)=O)nc3)c2c(=O)n1-c1ccccc1 [Example 392] ?
94

[I] C[C@H](Nc1ncnc2[nH]ccc(=O)c12)c1c(Cl)c2cccc([S@](=N)(=O)c3ncccn3)c2c(=O)n1-c1ccccc1 [Example 421]
[II] C[C@H](Nc1ncnc2[nH]ccc(=O)c12)c1c(Cl)c2cccc(-c3cnc(F)nc3)c2c(=O)n1-c1ccccc1 [Example 382]
Looking only at measured inhibition at 0.1 µM, which entry is lower, I or II ? Give the chosen item's label as your response.
I

[A] CCSc1cccc2c(Cl)c([C@H](C)Nc3ncnc4[nH]ccc(=O)c34)n(-c3ccccc3)c(=O)c12 [Example 434]
[B] CC(C)[S@@](=N)(=O)c1cccc2c(Cl)c([C@H](C)Nc3ncnc4[nH]ccc(=O)c34)n(-c3ccccc3)c(=O)c12 [Example 410]
inhibition at 0.1 µM comparison. Which is larger, A or B ? Give the chosen item's label as your response.
B
(B: 14%, A: 8%)

[P] C[C@H](Nc1ncnc2[nH]ccc(=O)c12)c1c(Cl)c2cccc(S(=O)(=O)c3ncccn3)c2c(=O)n1-c1ccccc1 [Example 420]
[Q] C[C@H](Nc1ncnc2[nH]ccc(=O)c12)c1c(Cl)c2cccc(S(=O)(=O)C3COC3)c2c(=O)n1-c1ccccc1 [Example 432]
inhibition at 0.1 µM comparison. Which is larger, P or Q ? Give the chosen item's label as your response.
Q

[A] C[C@H](Nc1ncnc2[nH]ccc(=O)c12)c1c(Cl)c2cccc(Sc3ccccn3)c2c(=O)n1-c1ccccc1 [Example 412]
[B] C[C@H](Nc1ncnc2[nH]ccc(=O)c12)c1c(Cl)c2cccc(S(=O)(=O)c3ccc(F)cc3)c2c(=O)n1-c1ccccc1 [Example 399]
[C] C[C@H](Nc1ncnc2[nH]ccc(=O)c12)c1c(Cl)c2cccc([S+]([O-])c3ncccn3)c2c(=O)n1-c1ccccc1 (stereo partly shown) [Example 419]
[D] CC(C)Sc1cccc2c(Cl)c([C@H](C)Nc3ncnc4[nH]ccc(=O)c34)n(-c3ccccc3)c(=O)c12 [Example 415]
List by increasing inhibition at 0.1 µM. Output the labels ranked as instructed.
D, C, A, B
(D: 0%, C: 7%, A: 29%, B: 92%)
